- Tgt: T1, EsCas13d, nuclease-dead (Eubacterium siraeum, UniProt B0MS50, R295A;H300A;R849A;H854A)
- T1 sequence: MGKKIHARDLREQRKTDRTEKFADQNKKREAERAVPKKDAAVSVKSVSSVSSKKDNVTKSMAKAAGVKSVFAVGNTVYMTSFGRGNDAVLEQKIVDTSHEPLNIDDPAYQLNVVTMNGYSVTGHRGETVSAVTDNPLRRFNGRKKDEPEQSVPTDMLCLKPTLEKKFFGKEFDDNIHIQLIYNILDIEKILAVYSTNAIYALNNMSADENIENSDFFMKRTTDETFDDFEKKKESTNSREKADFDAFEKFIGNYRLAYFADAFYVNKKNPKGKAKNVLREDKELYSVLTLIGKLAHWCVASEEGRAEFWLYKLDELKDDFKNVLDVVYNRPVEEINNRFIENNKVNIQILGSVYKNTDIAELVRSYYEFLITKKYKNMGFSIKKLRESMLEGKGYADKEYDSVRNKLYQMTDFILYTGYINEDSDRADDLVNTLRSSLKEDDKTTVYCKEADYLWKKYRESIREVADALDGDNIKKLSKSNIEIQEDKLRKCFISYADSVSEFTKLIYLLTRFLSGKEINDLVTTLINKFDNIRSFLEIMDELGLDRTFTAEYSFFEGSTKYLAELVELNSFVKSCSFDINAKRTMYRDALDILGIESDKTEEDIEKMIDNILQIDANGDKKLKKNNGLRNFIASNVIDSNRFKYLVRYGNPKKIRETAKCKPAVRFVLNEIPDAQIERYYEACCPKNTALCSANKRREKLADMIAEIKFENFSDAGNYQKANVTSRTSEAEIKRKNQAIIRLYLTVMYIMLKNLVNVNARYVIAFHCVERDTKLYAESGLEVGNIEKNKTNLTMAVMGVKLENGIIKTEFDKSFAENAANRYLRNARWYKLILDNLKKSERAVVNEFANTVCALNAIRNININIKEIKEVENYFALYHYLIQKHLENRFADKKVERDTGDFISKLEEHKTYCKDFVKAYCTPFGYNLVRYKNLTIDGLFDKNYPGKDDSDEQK
- Assay Explanation: crRNA (strand 1, pre-loaded); Mg2+; 40 mM Tris-HCl pH 7.5, 150 mM NaCl, 6 mM MgCl2, 1 mM DTT, 0.1% Tween-20, 0.2 mg/ml BSA; 25 C; 10 min per concentration, then washed
- Reported Conditions: tags: His6-TwinStrep-SUMO cleaved; N-terminal SNAP kept (SNAP-Surface 488); label: 3' end held by stalled T7 RNA polymerase
Value Type: pKd
Reminder that pKd is minus the log10 of a molar concentration.

Prompt line: Give the reported value of pKd for this record: target 1 MT 5'PFS CAA 3'PFS UCG (mixed) RNA 1: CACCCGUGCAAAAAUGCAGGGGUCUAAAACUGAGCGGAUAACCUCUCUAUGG RNA 2: GGGAAUGGAUCCACAUCUACGAAUUCCAACCAUAGAGAGGUUAUCCGCUCAUCGAGAUCGGAAGAGCACACGU
Response line: 7.91
